- EXPERIMENTAL_SYSTEM: FLT3 (human) (UniProt P36888)
- Sequence (P36888 whole entry, looked up): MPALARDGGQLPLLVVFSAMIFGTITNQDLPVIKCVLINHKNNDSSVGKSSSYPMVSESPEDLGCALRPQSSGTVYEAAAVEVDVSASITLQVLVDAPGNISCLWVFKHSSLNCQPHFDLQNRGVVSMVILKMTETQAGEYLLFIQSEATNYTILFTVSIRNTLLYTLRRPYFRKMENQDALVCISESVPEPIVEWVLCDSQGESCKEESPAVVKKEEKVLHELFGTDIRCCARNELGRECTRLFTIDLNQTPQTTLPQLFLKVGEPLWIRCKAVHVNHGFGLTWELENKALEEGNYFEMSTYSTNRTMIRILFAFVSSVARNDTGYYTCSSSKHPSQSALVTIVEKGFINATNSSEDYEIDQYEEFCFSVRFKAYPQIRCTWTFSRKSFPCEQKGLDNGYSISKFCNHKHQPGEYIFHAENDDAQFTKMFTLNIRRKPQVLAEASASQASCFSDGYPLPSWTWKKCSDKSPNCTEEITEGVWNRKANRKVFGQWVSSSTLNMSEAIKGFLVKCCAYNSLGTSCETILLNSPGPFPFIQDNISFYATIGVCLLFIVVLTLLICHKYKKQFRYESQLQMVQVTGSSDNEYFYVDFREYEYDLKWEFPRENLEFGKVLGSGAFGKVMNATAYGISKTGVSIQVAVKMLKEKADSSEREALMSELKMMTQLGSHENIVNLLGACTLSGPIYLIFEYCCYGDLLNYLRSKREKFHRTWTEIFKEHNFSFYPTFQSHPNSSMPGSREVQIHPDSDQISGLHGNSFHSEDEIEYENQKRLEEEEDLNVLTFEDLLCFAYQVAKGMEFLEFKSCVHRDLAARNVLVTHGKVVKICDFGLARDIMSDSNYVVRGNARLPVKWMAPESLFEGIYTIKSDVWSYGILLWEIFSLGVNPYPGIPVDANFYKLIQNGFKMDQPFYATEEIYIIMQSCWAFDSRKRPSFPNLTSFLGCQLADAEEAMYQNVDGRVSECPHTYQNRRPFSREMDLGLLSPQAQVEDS
- PROCEDURE_DETAILS: radiometric filter-binding kinase assay, Kinase HotSpot
- CONDITION_LABEL: compound 0.5 µM; ATP 10 µM
Tick yes (1) if residual activity is 40% or greater. Tick no (0) if residual activity is less than 40%.

I'd appreciate it if you could say whether Ic1cccc(CSc2nnc(-c3ccncc3)o2)c1 has residual activity at least equal to 40%.
yes (1)

---

- EXPERIMENTAL_SYSTEM: UniProtKB Q96BR1
- Sequence (Q96BR1 whole entry, looked up): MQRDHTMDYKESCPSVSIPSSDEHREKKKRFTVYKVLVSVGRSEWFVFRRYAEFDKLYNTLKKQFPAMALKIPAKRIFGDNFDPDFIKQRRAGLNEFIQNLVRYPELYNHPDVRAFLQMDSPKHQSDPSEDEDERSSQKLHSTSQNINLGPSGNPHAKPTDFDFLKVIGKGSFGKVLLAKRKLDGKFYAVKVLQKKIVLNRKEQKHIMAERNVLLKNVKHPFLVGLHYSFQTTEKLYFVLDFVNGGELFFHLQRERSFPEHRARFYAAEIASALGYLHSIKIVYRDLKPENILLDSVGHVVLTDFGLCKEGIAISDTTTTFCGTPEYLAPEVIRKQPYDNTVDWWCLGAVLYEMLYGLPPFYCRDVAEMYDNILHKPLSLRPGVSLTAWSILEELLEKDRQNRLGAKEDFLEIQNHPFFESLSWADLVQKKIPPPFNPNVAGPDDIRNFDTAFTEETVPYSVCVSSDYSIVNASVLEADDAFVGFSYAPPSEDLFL
- PROCEDURE_DETAILS: radiometric filter-binding kinase assay, Kinase HotSpot
- CONDITION_LABEL: compound 0.5 µM; ATP 10 µM
Can you tell me residual activity for the items I'm about to list?
Put your answer as a value accompanied by its unit after it.

Examples from the recorded data:
• c1ccc2c(-c3ccncc3)c[nH]c2c1 = 92.8%
• CC(C)(C)c1cc(C=C(C#N)C#N)cc(Br)c1O = 97.7%
• COc1ccc2c(c1)c(C1=C(c3c[nH]c4ccccc34)C(=O)NC1=O)cn2CCCN(C)C = 101%

Hi! Can you tell me residual activity for each of these compounds?
1. CN(C)c1ccc(/C=C2\C(=O)Nc3ccccc32)cc1
2. O=C1NC(=O)c2c1c1c3ccccc3[nH]c1n1cncc21
3. Cc1cncc2cccc(S(=O)(=O)N3CCCN(C(=O)CN)C[C@H]3C)c12

["107%", "111%", "96%"]

Hi! Can you tell me residual activity for each of these compounds?
1. COc1ccc(Cl)cc1NC(=O)Nc1cc(C)nc2ccccc12
2. COc1ccc2c(c1)/C(=C/c1cnc[nH]1)C(O)=N2
3. CO[C@@H]1[C@H](N(C)C(=O)c2ccccc2)C[C@H]2O[C@]1(C)n1c3ccccc3c3c4c(c5c6ccccc6n2c5c31)C(=O)NC4
4. CS(=O)(=O)CCNCc1ccc(-c2ccc3ncnc(Nc4ccc(OCc5cccc(F)c5)c(Cl)c4)c3c2)o1

1: 108%; 2: 101%; 3: 93.5%; 4: 102%

---

- EXPERIMENTAL_SYSTEM: RPS6KA1 KD1 KD2 (human) (UniProt Q15418)
- Sequence (Q15418 whole entry, looked up): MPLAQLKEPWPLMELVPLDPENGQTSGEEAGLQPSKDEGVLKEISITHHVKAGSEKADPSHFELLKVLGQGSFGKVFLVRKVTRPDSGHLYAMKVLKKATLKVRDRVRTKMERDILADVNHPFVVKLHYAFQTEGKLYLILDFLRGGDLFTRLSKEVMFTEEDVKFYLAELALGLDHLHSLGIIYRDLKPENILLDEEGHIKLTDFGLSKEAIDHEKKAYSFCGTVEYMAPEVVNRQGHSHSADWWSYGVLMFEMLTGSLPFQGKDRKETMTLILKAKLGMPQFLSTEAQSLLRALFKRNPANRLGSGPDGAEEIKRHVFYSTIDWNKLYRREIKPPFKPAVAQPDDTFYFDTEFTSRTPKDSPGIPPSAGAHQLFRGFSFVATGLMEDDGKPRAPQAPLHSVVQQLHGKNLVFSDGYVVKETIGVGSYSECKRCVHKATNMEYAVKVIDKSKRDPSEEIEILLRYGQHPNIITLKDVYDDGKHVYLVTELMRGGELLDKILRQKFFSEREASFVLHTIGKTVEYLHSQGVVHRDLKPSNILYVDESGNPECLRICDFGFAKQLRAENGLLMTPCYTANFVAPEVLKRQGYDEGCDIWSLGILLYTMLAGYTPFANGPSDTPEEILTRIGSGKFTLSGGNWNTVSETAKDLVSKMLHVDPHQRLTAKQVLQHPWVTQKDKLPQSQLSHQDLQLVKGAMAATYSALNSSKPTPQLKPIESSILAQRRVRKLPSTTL
- PROCEDURE_DETAILS: radiometric filter-binding kinase assay, Kinase HotSpot
- CONDITION_LABEL: compound 0.5 µM; ATP 10 µM
ASSAY_READOUT: residual activity (%)
Answers are plain numbers, in %.

Examples from the recorded data:
• COc1ccc2c(c1)/C(=C/c1cnc[nH]1)C(O)=N2 = 69.6
• Cc1cccc(-c2nc(C(C)(C)C)[nH]c2-c2ccc3c(c2)OCO3)n1 = 96.4
• COc1cc(Nc2c(C#N)cnc3cc(OCCCN4CCN(C)CC4)c(OC)cc23)c(Cl)cc1Cl = 80.4

Hi! Can you tell me residual activity for each of these molecules?
1. COc1cc2ncnc(Nc3ccc(Oc4ccccc4)cc3)c2cc1OC
2. Cn1c2ccccc2c2c3c(c4c5ccccc5n(CCC#N)c4c21)CNC3=O

1. 97.6
2. 9.7

---

Can you tell me residual activity for the items I'm about to list?
- EXPERIMENTAL_SYSTEM: TEK (human) (UniProt Q02763)
- Sequence (Q02763 whole entry, looked up): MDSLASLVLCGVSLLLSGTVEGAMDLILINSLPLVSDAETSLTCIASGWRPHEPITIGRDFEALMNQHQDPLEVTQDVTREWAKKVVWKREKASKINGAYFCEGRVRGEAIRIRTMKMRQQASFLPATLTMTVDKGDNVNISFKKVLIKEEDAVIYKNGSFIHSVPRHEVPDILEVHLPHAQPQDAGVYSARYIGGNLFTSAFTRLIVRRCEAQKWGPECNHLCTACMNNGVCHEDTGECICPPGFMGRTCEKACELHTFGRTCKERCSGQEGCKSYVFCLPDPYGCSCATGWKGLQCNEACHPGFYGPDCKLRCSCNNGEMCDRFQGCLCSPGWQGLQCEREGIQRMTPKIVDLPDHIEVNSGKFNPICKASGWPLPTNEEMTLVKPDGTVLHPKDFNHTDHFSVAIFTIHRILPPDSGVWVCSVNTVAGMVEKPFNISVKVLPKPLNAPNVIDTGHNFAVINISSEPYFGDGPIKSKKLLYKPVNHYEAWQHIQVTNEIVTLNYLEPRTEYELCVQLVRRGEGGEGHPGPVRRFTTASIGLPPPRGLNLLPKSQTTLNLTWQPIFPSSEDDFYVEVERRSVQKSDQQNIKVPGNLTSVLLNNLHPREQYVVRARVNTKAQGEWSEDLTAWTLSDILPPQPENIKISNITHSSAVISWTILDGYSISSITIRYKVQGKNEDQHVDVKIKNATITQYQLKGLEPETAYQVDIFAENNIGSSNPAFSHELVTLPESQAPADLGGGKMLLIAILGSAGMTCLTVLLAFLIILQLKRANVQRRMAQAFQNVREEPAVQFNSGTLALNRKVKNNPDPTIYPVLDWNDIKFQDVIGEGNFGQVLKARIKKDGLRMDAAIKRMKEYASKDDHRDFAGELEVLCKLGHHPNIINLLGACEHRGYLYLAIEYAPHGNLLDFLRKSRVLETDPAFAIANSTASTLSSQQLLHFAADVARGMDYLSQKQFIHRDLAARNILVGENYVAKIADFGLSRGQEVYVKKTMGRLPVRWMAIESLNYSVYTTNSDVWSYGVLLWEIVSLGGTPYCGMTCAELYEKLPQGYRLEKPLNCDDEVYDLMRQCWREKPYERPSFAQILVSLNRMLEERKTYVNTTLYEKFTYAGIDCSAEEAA
- PROCEDURE_DETAILS: radiometric filter-binding kinase assay, Kinase HotSpot
- CONDITION_LABEL: compound 0.5 µM; ATP 10 µM
One number for each entry, in %.

Examples from the recorded data:
• NC(=O)c1cccc(-c2cc(Nc3ccc(OC(F)(F)F)cc3)ncn2)c1 = 94.2
• COc1ccc2c(c1)c(C1=C(c3c[nH]c4ccccc34)C(=O)NC1=O)cn2CCCN(C)C = 102
• CN(C)CCCn1cc(C2=C(c3c[nH]c4ccccc34)C(=O)NC2=O)c2ccccc21 = 99.7
• CS(=O)(=O)CCNCc1ccc(-c2ccc3ncnc(Nc4ccc(OCc5cccc(F)c5)c(Cl)c4)c3c2)o1 = 93.2
• O=C1NC(=O)c2c1c1c3ccccc3[nH]c1n1cncc21 = 78.9

Hi! Can you tell me residual activity for each of these compounds?
1. CCCCc1c(-c2ccc(OC)cc2)[nH]c2nccnc12
2. Cn1c2ccccc2c2c3c(c4c5ccccc5n(CCC#N)c4c21)CNC3=O
3. COc1ccc2c(c1)/C(=C/c1cnc[nH]1)C(O)=N2
4. CC(C)(C)c1cc(C=C(C#N)C#N)cc(Br)c1O

1. 96.3
2. 104
3. 98.4
4. 97.9

Kindly note the recorded residual activity for Fc1ccc(-c2nc3n(c2-c2ccncc2)CCS3)cc1 , which is 95.6
